# tested.on: Human Serum Kallikrein (human, UniProt P03952)
# experiment.summary: enzyme inhibition assay; limit on the assumption of less than 10% inhibition at the highest concentration tested
assay.readout: Ki

Given EPI-HNE-3 (designed binder) AACNLPIVRGPCIAFFPRWAFDAVKGKCVLFPYGGCQGNGNKFYSEKECREYCGVP , state its recorded Ki.
> 100 µM

Next binder: EPI-HNE-4 (designed binder) EACNLPIVRGPCIAFFPRWAFDAVKGKCVLFPYGGCQGNGNKFYSEKECREYCGVP
> 90 µM
